Exercise: for every item that follows, state its recorded Antimicrobial Activity (MIC) Gram + Cg.
Test system: C. glutamicum (Cg, ATCC 13032)
assay.text: microbe, parasite or virus in culture
Type: cell-based, Corynebacterium glutamicum
test.conditions: ATCC 13032, 24 h
Where a SMILES comes first, the peptide text is derived from it. Bridges are numbered along the chain shown (N, C = ends). The star is where a group is joined. Lauroyl = CCCCCCCCCCCC(=O)*; Decanoyl = CCCCCCCCCC(=O)*; Octanoyl = CCCCCCCC(=O)*
Write the value in µg/mL as a bare number.

Would you mind telling me what Antimicrobial Activity (MIC) Gram + Cg value was observed for CC(C)C[C@H](NC(=O)[C@H](CCCCN)NC(=O)[C@@H]1CSSC[C@H](N)C(=O)NCC(=O)N[C@@H](CCCCN)C(=O)N[C@@H](CCCCN)C(=O)N[C@@H](Cc2c[nH]c3ccccc23)C(=O)N[C@@H](Cc2c[nH]c3ccccc23)C(=O)NCC(=O)N[C@@H](Cc2c[nH]c3ccccc23)C(=O)N[C@@H](CCCCN)C(=O)N1)C(N)=O [cTurg-2] (H-CGKKWWGWKCKL-NH2; disulfide 1-10; N-terminus assumed) ?
4

Also CCCCCCCCCC(=O)N[C@H]1CSSC[C@@H](C(=O)N[C@@H](CCCCN)C(=O)N[C@@H](CC(C)C)C(N)=O)NC(=O)[C@H](CCCCN)NC(=O)[C@H](Cc2c[nH]c3ccccc23)NC(=O)CNC(=O)CNC(=O)[C@@H]2CCCN2C(=O)[C@H](CCCCN)NC(=O)[C@H](CCCCN)NC(=O)CNC1=O [Peptide C10-cTurg-1, C10 -(CGKKPGGWKC)KL-NH2] (Decanoyl-CGKKPGGWKCKL-NH2; disulfide 1-10) , if possible.
2

Param item: CCCCCCCC(=O)N[C@@H](CS)C(=O)NCC(=O)N[C@@H](CCCCN)C(=O)N[C@@H](CCCCN)C(=O)N[C@@H](Cc1c[nH]c2ccccc12)C(=O)N[C@@H](Cc1c[nH]c2ccccc12)C(=O)NCC(=O)N[C@@H](Cc1c[nH]c2ccccc12)C(=O)N[C@@H](CCCCN)C(=O)N[C@@H](CS)C(=O)N[C@@H](CCCCN)C(=O)N[C@@H](CC(C)C)C(N)=O [Peptide C8-Turg-2, C8- CGKKWWGWKC KL-NH2] (Octanoyl-CGKKWWGWKCKL-NH2)
4

Request: CC(C)C[C@H](NC(=O)[C@H](CCCCN)NC(=O)[C@@H]1CSSC[C@H](N)C(=O)NCC(=O)N[C@@H](CCCCN)C(=O)N[C@@H](CCCCN)C(=O)N2CCC[C@H]2C(=O)N[C@@H](Cc2c[nH]c3ccccc23)C(=O)N[C@@H](Cc2c[nH]c3ccccc23)C(=O)N[C@@H](Cc2c[nH]c3ccccc23)C(=O)N[C@@H](CCCCN)C(=O)N1)C(N)=O [cTurg-4] (H-CGKKPWWWKCKL-NH2; disulfide 1-10; N-terminus assumed)
4

CCCCCCCC(=O)N[C@@H](CS)C(=O)NCC(=O)N[C@@H](CCCNC(=N)N)C(=O)N[C@@H](CCCNC(=N)N)C(=O)N[C@@H](Cc1c[nH]c2ccccc12)C(=O)NCC(=O)N[C@@H](Cc1c[nH]c2ccccc12)C(=O)N[C@@H](Cc1c[nH]c2ccccc12)C(=O)N[C@@H](CCCNC(=N)N)C(=O)N[C@@H](CS)C(=O)N[C@@H](CCCNC(=N)N)C(=O)N[C@@H](CC(C)C)C(N)=O [Peptide C8-Turg-6, C8- CGRRWGWWRC RL-NH2] (Octanoyl-CGRRWGWWRCRL-NH2) ?
4

// repeat for CC(C)C[C@H](NC(=O)[C@H](CCCCN)NC(=O)[C@@H]1CSSC[C@H](N)C(=O)NCC(=O)N[C@@H](CCCCN)C(=O)N[C@@H](CCCCN)C(=O)N2CCC[C@H]2C(=O)NCC(=O)NCC(=O)N[C@@H](Cc2c[nH]c3ccccc23)C(=O)N[C@@H](CCCCN)C(=O)N1)C(N)=O [cTurg-1] (H-CGKKPGGWKCKL-NH2; disulfide 1-10; N-terminus assumed) and report
16

Would you mind doing CCCCCCCCCC(=O)N[C@@H](CS)C(=O)NCC(=O)N[C@@H](CCCCN)C(=O)N[C@@H](CCCCN)C(=O)N1CCC[C@H]1C(=O)NCC(=O)NCC(=O)N[C@@H](Cc1c[nH]c2ccccc12)C(=O)N[C@@H](CCCCN)C(=O)N[C@@H](CS)C(=O)N[C@@H](CCCCN)C(=O)N[C@@H](CC(C)C)C(N)=O [Peptide C10-Turg-1, C10- CGKKPGGWKC KL-NH2] (Decanoyl-CGKKPGGWKCKL-NH2) as well?
4

Do the same for CCCCCCCC(=O)N[C@H]1CSSC[C@@H](C(=O)N[C@@H](CCCCN)C(=O)N[C@@H](CC(C)C)C(N)=O)NC(=O)[C@H](CCCCN)NC(=O)[C@H](Cc2c[nH]c3ccccc23)NC(=O)CNC(=O)[C@H](Cc2c[nH]c3ccccc23)NC(=O)[C@H](Cc2c[nH]c3ccccc23)NC(=O)[C@H](CCCCN)NC(=O)[C@H](CCCCN)NC(=O)CNC1=O [Peptide C8-cTurg-2, C8- (CGKKWWGWKC)KL-NH2] (Octanoyl-CGKKWWGWKCKL-NH2; disulfide 1-10) please
2

What do you get for CCCCCCCCCCCC(=O)N[C@@H](CS)C(=O)NCC(=O)N[C@@H](CCCCN)C(=O)N[C@@H](CCCCN)C(=O)N[C@@H](Cc1c[nH]c2ccccc12)C(=O)N[C@@H](Cc1c[nH]c2ccccc12)C(=O)NCC(=O)N[C@@H](Cc1c[nH]c2ccccc12)C(=O)N[C@@H](CCCCN)C(=O)N[C@@H](CS)C(=O)N[C@@H](CCCCN)C(=O)N[C@@H](CC(C)C)C(N)=O [Peptide C12-Turg-2, C12- CGKKWWGWKC KL-NH2] (Lauroyl-CGKKWWGWKCKL-NH2) ?
16

Item: CC(C)C[C@H](NC(=O)[C@H](CCCNC(=N)N)NC(=O)[C@@H]1CSSC[C@H](N)C(=O)NCC(=O)N[C@@H](CCCNC(=N)N)C(=O)N[C@@H](CCCNC(=N)N)C(=O)N2CCC[C@H]2C(=O)N[C@@H](Cc2c[nH]c3ccccc23)C(=O)N[C@@H](Cc2c[nH]c3ccccc23)C(=O)N[C@@H](Cc2c[nH]c3ccccc23)C(=O)N[C@@H](CCCNC(=N)N)C(=O)N1)C(N)=O [cTurg-7] (H-CGRRPWWWRCRL-NH2; disulfide 1-10; N-terminus assumed)
4
